Test: Bidirectional transport across Caco-2 cell monolayers
Settings: human, Caco-2, pH 7.4
PARAMETER_MEASURED: Papp at 60 min, 10 μM (×10⁻⁶ cm/s)
Numbers only, in ×10⁻⁶ cm/s.

Query: Quick one: Papp at 60 min, 10 μM for CC(C)NCC(O)COc1cccc2ccccc12 (stereo not shown) [propranolol, reference compound] ?
Reply: 39.4

###

Assay: Bidirectional transport across Caco-2 cell monolayers
Details: human, Caco-2, pH 7.4
Source text: To investigate the intestinal absorption and transport properties of the three DiCQAs and three PGAs, 14-day cultured Caco-2 monolayer cells were used for the bidirectional transport study. […]
PARAMETER_MEASURED: efflux ratio at 60 min, 1 mg/mL
Give bare numbers.

{"columns": ["MOLECULE", "PARAMETER_MEASURED", "MEASURED_NUMBER"],
 "data": [
  ["CC#CC#CC#C/C=C/CCC(CO)O[C@@H]1O[C@H](CO)[C@@H](O)[C@H](O)[C@H]1O (some centres unmarked)", "efflux ratio at 60 min, 1 mg/mL", 32.1]
]}

Query: Quick one: efflux ratio at 60 min, 1 mg/mL for CC#CC#CC#C/C=C/CCC(CCO)O[C@@H]1O[C@H](CO)[C@@H](O)[C@H](O)[C@H]1O (some centres unmarked) ?
Reply: 6.03
